The reported measurements were obtained from PubChem BioAssay AID308.

- Tested on: BDF1 mice, L1210 6-MP/6-TG resistant leukemia ip, survival T/C
- Test summary: NCI In Vivo Anticancer Drug Screen. Data for tumor model L1210 Leukemia resistant to 6-MP and 6-Thioguanine; NSC 755, NSC 752 (intraperitoneal) in B6D2F1 (BDF1) mice
- Condition info: endpoint: mean survival time; dose: 500.0 mg/kg/injection; schedule: Q01DX Z (ip); vehicle: saline
Inconclusive results and toxic doses are left out. The calls were made as follows: active = survival T/C of 150% or more; inactive = T/C below 125% in these data.
Write down the outcome that applies. Available outcomes: class 1 (active), class 0 (inactive)

Give the logged outcome of this assay for the following compound: O=CCC(O)C(O)C(O)CO (stereo not given)
class 0

Next compound up: O=CN(O)CC(=O)O
class 0

Follow-up item: O=c1cnn(C2OC(CO)C(O)C2O)c(=O)[nH]1 (stereo not given)
class 0

Same for C[C@H](N)C(=O)N[C@@H]1[C@H]2C(=C(O)C[C@@H](O)[C@@H]2O)C(=O)O[C@@H]1C
class 1

Also CC(=O)N(C)C ?
class 0
